Data origin: PubChem BioAssay AID1963843

- System: 616215-338-R-J1-PDC complex spheroid viability
- assayOverview: Anticancer human tumor 616215-338-R-J1-PDC patient-derived colon adenocarcinoma cell line growth inhibition [POLQ]
- experimentalConditions: curve of first compound; second compound 0.316 µM
pIC50: −log10 of the molar value.
Here, each record is paired with measured pIC50 data.
experimentalEndpoint: pIC50

>>> number("COc1cccc2c1C(=O)c1c(O)c3c(c(O)c1C2=O)CC(O)(C(=O)CO)CC3OC1CC(N)C(O)C(C)O1 (stereo not given) + Cc1cccc(N(C)C(=O)C2C(O)CCN2c2nc(C)cc(C(F)(F)F)c2C#N)c1")
6.11
>>> number("CC1COCCN1c1cc(C2(O)CC3CCC(C2)O3)c2cnn(-c3ccn[nH]3)c2n1 (stereo not given) + Nc1ccc(C#CCN(C(=O)Cc2ncc(C(F)(F)F)cc2C(F)(F)F)c2ccc(F)cc2)nn1")
6.57
>>> number("C=CCn1c(=O)c2cnc(Nc3ccc(N4CCN(C)CC4)cc3)nc2n1-c1cccc(C(C)(C)O)n1 + Cc1cccc(N(C)C(=O)C2C(O)CCN2c2nc(C)cc(C(F)(F)F)c2C#N)c1")
6.25

----------
Examples of compounds with documented viability, T/C follow.
- Test system: 616215-338-R-J1-PDC complex spheroid viability
- assayOverview: Anticancer human tumor 616215-338-R-J1-PDC cell line growth inhibition [POLQ];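 further: spheroids exposed to compounds for one week before readout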;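 on viability, T/C: percent viability relative to DMSO vehicle wells taken as 100%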
- experimentalConditions: second compound 0.0316 µM; first compound 1 µM; stronger effect = lower value
experimentalEndpoint: viability, T/C (%)

>>> number("COc1cccc2c1C(=O)c1c(O)c3c(c(O)c1C2=O)CC(O)(C(=O)CO)CC3OC1CC(N)C(O)C(C)O1 (stereo not given) + Cc1cccc(N(C)C(=O)C2C(O)CCN2c2nc(C)cc(C(F)(F)F)c2C#N)c1")
55.9
>>> number("Nc1ccn(C2OC(CO)C(O)C2(F)F)c(=O)n1 (stereo not given) + Cc1cccc(N(C)C(=O)C2C(O)CCN2c2nc(C)cc(C(F)(F)F)c2C#N)c1")
30.8
>>> number("CNCc1ccc(-c2[nH]c3cc(F)cc4c3c2CCNC4=O)cc1 + COC1C(OC(N)=O)C(O)C(Oc2ccc3c(O)c(NC(=O)c4ccc(O)c(CC=C(C)C)c4)c(=O)oc3c2C)OC1(C)C")
111
>>> number("O=C(c1cc(Cc2n[nH]c(=O)c3ccccc23)ccc1F)N1CCN(C(=O)C2CC2)CC1 + COC1C(OC(N)=O)C(O)C(Oc2ccc3c(O)c(NC(=O)c4ccc(O)c(CC=C(C)C)c4)c(=O)oc3c2C)OC1(C)C")
105
>>> number("CCCS(=O)(=O)Nc1ccc(F)c(C(=O)c2c[nH]c3ncc(-c4ccc(Cl)cc4)cc23)c1F + Nc1ccc(C#CCN(C(=O)Cc2ncc(C(F)(F)F)cc2C(F)(F)F)c2ccc(F)cc2)nn1")
110
>>> number("COc1cc2cc(C(=O)CCC(=O)O)sc2cc1OC + Cc1cccc(N(C)C(=O)C2C(O)CCN2c2nc(C)cc(C(F)(F)F)c2C#N)c1")
104
>>> number("CC1COCCN1c1cc(C2(S(C)(=N)=O)CC2)nc(-c2ccnc3[nH]ccc23)n1 (stereo not given) + COC1C(OC(N)=O)C(O)C(Oc2ccc3c(O)c(NC(=O)c4ccc(O)c(CC=C(C)C)c4)c(=O)oc3c2C)OC1(C)C")
98.5
>>> number("O=C(Nc1ccc(O)c(NS(=O)(=O)c2ccc(F)cc2)c1)c1ccc(-c2ccccc2)cc1 + COC1C(OC(N)=O)C(O)C(Oc2ccc3c(O)c(NC(=O)c4ccc(O)c(CC=C(C)C)c4)c(=O)oc3c2C)OC1(C)C")
109
>>> number("CC1COCCN1c1cc(-c2ccnn2C)c2ccnc(-c3ccn[nH]3)c2n1 (stereo not given) + Nc1ccc(C#CCN(C(=O)Cc2ncc(C(F)(F)F)cc2C(F)(F)F)c2ccc(F)cc2)nn1")
31.7
>>> number("CC1COCCN1c1cc(-c2ccnn2C)c2ccnc(-c3ccn[nH]3)c2n1 (stereo not given) + COC1C(OC(N)=O)C(O)C(Oc2ccc3c(O)c(NC(=O)c4ccc(O)c(CC=C(C)C)c4)c(=O)oc3c2C)OC1(C)C")
48.4
>>> number("CCCS(=O)(=O)Nc1ccc(F)c(C(=O)c2c[nH]c3ncc(-c4ccc(Cl)cc4)cc23)c1F + Cc1cccc(N(C)C(=O)C2C(O)CCN2c2nc(C)cc(C(F)(F)F)c2C#N)c1")
105
>>> number("COc1cccc2c1C(=O)c1c(O)c3c(c(O)c1C2=O)CC(O)(C(=O)CO)CC3OC1CC(N)C(O)C(C)O1 (stereo not given) + Nc1ccc(C#CCN(C(=O)Cc2ncc(C(F)(F)F)cc2C(F)(F)F)c2ccc(F)cc2)nn1")
20.9
>>> number("CCCS(=O)(=O)Nc1ccc(F)c(C(=O)c2c[nH]c3ncc(-c4ccc(Cl)cc4)cc23)c1F + COC1C(OC(N)=O)C(O)C(Oc2ccc3c(O)c(NC(=O)c4ccc(O)c(CC=C(C)C)c4)c(=O)oc3c2C)OC1(C)C")
108
>>> number("CC1COCCN1c1cc(-c2ccnn2C)c2ccnc(-c3ccn[nH]3)c2n1 (stereo not given) + Cc1cccc(N(C)C(=O)C2C(O)CCN2c2nc(C)cc(C(F)(F)F)c2C#N)c1")
66.2
>>> number("COc1cc2cc(C(=O)CCC(=O)O)sc2cc1OC + COC1C(OC(N)=O)C(O)C(Oc2ccc3c(O)c(NC(=O)c4ccc(O)c(CC=C(C)C)c4)c(=O)oc3c2C)OC1(C)C")
105
>>> number("C=CCn1c(=O)c2cnc(Nc3ccc(N4CCN(C)CC4)cc3)nc2n1-c1cccc(C(C)(C)O)n1 + Cc1cccc(N(C)C(=O)C2C(O)CCN2c2nc(C)cc(C(F)(F)F)c2C#N)c1")
34.3
>>> number("CCc1cc2c(N3CCc4c(cc(Cn5ccnc5)cc4-c4cn(C)nc4C(F)(F)F)C3=O)ccnc2c(OC)n1 + Cc1cccc(N(C)C(=O)C2C(O)CCN2c2nc(C)cc(C(F)(F)F)c2C#N)c1")
69.4
>>> number("CC(C)n1c(=O)n(C)c2cnc3cc(F)c(-c4ccc(OCCCN5CCCCC5)nc4)cc3c21 + COC1C(OC(N)=O)C(O)C(Oc2ccc3c(O)c(NC(=O)c4ccc(O)c(CC=C(C)C)c4)c(=O)oc3c2C)OC1(C)C")
109
>>> number("C#Cc1c(F)ccc2cc(O)cc(-c3ncc4c(N5CC6CCC(C5)N6)nc(OCC56CCCN5CC(F)C6)nc4c3F)c12 (stereo not given) + Cc1cccc(N(C)C(=O)C2C(O)CCN2c2nc(C)cc(C(F)(F)F)c2C#N)c1")
101
>>> number("COc1ccc([C@@H](O)c2cc(-c3ncnc4cc(N5CCOCC5)ccc34)c(F)cc2Cl)nn1 + COC1C(OC(N)=O)C(O)C(Oc2ccc3c(O)c(NC(=O)c4ccc(O)c(CC=C(C)C)c4)c(=O)oc3c2C)OC1(C)C")
99.4

----------
- System: 616215-338-R-J1-PDC complex spheroid viability
- assayOverview: Anticancer human tumor 616215-338-R-J1-PDC cell line growth inhibition [POLQ];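 further: spheroids exposed to compounds for one week before readout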;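 on viability, T/C: percent viability relative to DMSO vehicle wells taken as 100%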
- experimentalConditions: second compound 0.1 µM; first compound 0.01 µM; stronger effect = lower value
experimentalEndpoint: viability, T/C (%)

>>> number("COc1cccc(OCCCN)c1-c1cc(Nc2cnc(C#N)cn2)n[nH]1 + Nc1ccc(C#CCN(C(=O)Cc2ncc(C(F)(F)F)cc2C(F)(F)F)c2ccc(F)cc2)nn1")
102
>>> number("C=CCn1c(=O)c2cnc(Nc3ccc(N4CCN(C)CC4)cc3)nc2n1-c1cccc(C(C)(C)O)n1 + Nc1ccc(C#CCN(C(=O)Cc2ncc(C(F)(F)F)cc2C(F)(F)F)c2ccc(F)cc2)nn1")
89.1
>>> number("CC[C@@]1(O)C(=O)OCc2c1cc1n(c2=O)Cc2cc3c(CN(C)C)c(O)ccc3nc2-1 + COC1C(OC(N)=O)C(O)C(Oc2ccc3c(O)c(NC(=O)c4ccc(O)c(CC=C(C)C)c4)c(=O)oc3c2C)OC1(C)C")
106
>>> number("CC[C@@]1(O)C(=O)OCc2c1cc1n(c2=O)Cc2cc3c(CN(C)C)c(O)ccc3nc2-1 + Cc1cccc(N(C)C(=O)C2C(O)CCN2c2nc(C)cc(C(F)(F)F)c2C#N)c1")
116
>>> number("CC[C@@]1(O)C(=O)OCc2c1cc1n(c2=O)Cc2cc3c(CN(C)C)c(O)ccc3nc2-1 + Nc1ccc(C#CCN(C(=O)Cc2ncc(C(F)(F)F)cc2C(F)(F)F)c2ccc(F)cc2)nn1")
102

----------
- Test system: 616215-338-R-J1-PDC complex spheroid viability
- assayOverview: Anticancer human tumor 616215-338-R-J1-PDC cell line growth inhibition [POLQ];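 further: spheroids exposed to compounds for one week before readout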;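 on viability, T/C: percent viability relative to DMSO vehicle wells taken as 100%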
- experimentalConditions: second compound 1 µM; first compound 3.16 µM; stronger effect = lower value
experimentalEndpoint: viability, T/C (%)

>>> number("CC1COCCN1c1cc(C2(O)CC3CCC(C2)O3)c2cnn(-c3ccn[nH]3)c2n1 (stereo not given) + Cc1cccc(N(C)C(=O)C2C(O)CCN2c2nc(C)cc(C(F)(F)F)c2C#N)c1")
57.9
>>> number("COc1cccc2c1C(=O)c1c(O)c3c(c(O)c1C2=O)CC(O)(C(=O)CO)CC3OC1CC(N)C(O)C(C)O1 (stereo not given) + Nc1ccc(C#CCN(C(=O)Cc2ncc(C(F)(F)F)cc2C(F)(F)F)c2ccc(F)cc2)nn1")
2.85
>>> number("O=C(c1cc(Cc2n[nH]c(=O)c3ccccc23)ccc1F)N1CCN(C(=O)C2CC2)CC1 + COC1C(OC(N)=O)C(O)C(Oc2ccc3c(O)c(NC(=O)c4ccc(O)c(CC=C(C)C)c4)c(=O)oc3c2C)OC1(C)C")
97
>>> number("CCc1cc2c(N3CCc4c(cc(Cn5ccnc5)cc4-c4cn(C)nc4C(F)(F)F)C3=O)ccnc2c(OC)n1 + Nc1ccc(C#CCN(C(=O)Cc2ncc(C(F)(F)F)cc2C(F)(F)F)c2ccc(F)cc2)nn1")
63.8
>>> number("CCCS(=O)(=O)Nc1ccc(F)c(C(=O)c2c[nH]c3ncc(-c4ccc(Cl)cc4)cc23)c1F + Nc1ccc(C#CCN(C(=O)Cc2ncc(C(F)(F)F)cc2C(F)(F)F)c2ccc(F)cc2)nn1")
102
